System: Mus musculus
Assay: In vivo potency against Escherichia coli vogel using mouse protection assay when given subcutaneously
Assay type: functional
Details: sc, read-out: PD50
Listed compounds paired with reported ED50
Answer in mg/kg, number only, no unit symbol.

> print(dat)
                                   compound  recorded.number
1  CN(C)CC1CCN(c2c(F)cc3c(=O)c(C(=O)O)cn(C4CC4)c3c2N)C1.Cl (centres undefined)                4
2  CCNCC1CCN(c2c(F)cc3c(=O)c(C(=O)O)cn4c3c2OCC4C)C1 (centres undefined)               11
3  Nc1c(N2CCNCC2)c(F)cc2c(=O)c(C(=O)O)cn(C3CC3)c12                2

Here is the next item to consider.
Query: State the recorded ED50 for this entry: CN(C)CC1CCN(c2nc3c(cc2F)c(=O)c(C(=O)O)cn3C2CC2)C1 (centres undefined)
Response: 1

* * *

List of ED50 values.
Test system: Staphylococcus aureus
Experiment: In vivo potency against Staphylococcus aureus using mouse protection assay following s.c. administration.
Format: functional
Conditions: sc, read-out: PD50
Write down the numeric answer in mg/kg and omit the unit.

As a guide, the following entries are already answered.
> print(dat)
                                   compound  unit.abbrev  recorded.number
1  CN(C)CC1CCN(c2c(F)cc3c(=O)c(C(=O)O)cn(C4CC4)c3c2F)C1 (stereo not drawn)        mg/kg               20
2  Cl.NC1CCN(c2c(F)cc3c(=O)c(C(=O)O)cn(C4CC4)c3c2Cl)C1 (stereo not drawn) [CLINAFLOXACIN HYDROCHLORIDE]        mg/kg                5

Query: ED50; subject: O=C(O)c1cn(C2CC2)c2cc(N3CCNCC3)c(F)cc2c1=O [CIPROFLOXACIN]
Response: 5

* * *

Test system: Staphylococcus aureus
Assay: Minimum inhibitory concentration against Staphylococcus aureus UC-76 in vitro.
Assay type: functional
Listed compounds paired with reported MIC
Respond with a number, then the unit of measure.

> print(dat)
                                   compound                 system       result
1  CCNCC1CCN(c2c(F)cc3c(=O)c(C(=O)O)cn(C4CC4)c3c2F)C1 (configuration not stated) [PD-117558]  Staphylococcus aureus  0.006 µg/mL
2  Cl.NC1CCN(c2c(F)cc3c(=O)c(C(=O)O)cn(C4CC4)c3c2Cl)C1 (configuration not stated) [CLINAFLOXACIN HYDROCHLORIDE]  Staphylococcus aureus  0.013 µg/mL
3  CNCC1CCN(c2c(F)cc3c(=O)c(C(=O)O)cn4c3c2OCC4C)C1 (configuration not stated)  Staphylococcus aureus  0.025 µg/mL
4  CCNCC1CCN(c2c(F)cc3c(=O)c(C(=O)O)cn(C4CC4)c3c2N)C1.Cl.Cl (configuration not stated)  Staphylococcus aureus   0.05 µg/mL
5  Cl.O=C(O)c1cn(C2CC2)c2c([N+](=O)[O-])c(N3CCNCC3)c(F)cc2c1=O  Staphylococcus aureus    0.4 µg/mL

Query: Endpoint output: MIC of CNCC1CCN(c2cc3c(cc2F)c(=O)c(C(=O)O)cn3C2CC2)C1 (configuration not stated) . Value?
Response: 0.025 µg/mL

Query: Quick one: CCNCC1CCN(c2cc3c(cc2F)c(=O)c(C(=O)O)cn3C2CC2)C1.Cl (configuration not stated)
Response: 0.013 µg/mL

* * *

Tested on: Staphylococcus aureus
Assay: In vivo potency against Staphylococcus aureus using mouse protection assay following p.o. administration.
Assay type: functional
Settings: po, read-out: PD50
VALUE TYPE: ED50 (mg/kg)
Give the number; mg/kg is assumed, so skip it.

The following compounds have reported results that may help.
> print(dat)
                                   compound  recorded.number
1  CN(C)CC1CCN(c2c(F)cc3c(=O)c(C(=O)O)cn(C4CC4)c3c2N)C1.Cl (centres undefined)              100
2  O=C(O)c1cn(C2CC2)c2nc(N3CCNCC3)c(F)cc2c1=O               14
3  CN(C)CC1CCN(c2c(F)cc3c(=O)c(C(=O)O)cn(C4CC4)c3c2Cl)C1 (centres undefined)               61
4  CN(C)CC1CCN(c2c(F)cc3c(=O)c(C(=O)O)cn(C4CC4)c3c2F)C1 (centres undefined)               45
5  Cl.NC1CCN(c2c(F)cc3c(=O)c(C(=O)O)cn(C4CC4)c3c2Cl)C1 (centres undefined) [CLINAFLOXACIN HYDROCHLORIDE]               13

Query: Fill in: ED50 of CN(C)CC1CCN(c2nc3c(cc2F)c(=O)c(C(=O)O)cn3C2CC2)C1 (centres undefined) is ___
Response: 31

Query: Do the same for O=C(O)c1cn(C2CC2)c2cc(N3CCNCC3)c(F)cc2c1=O please
Response: 25

Query: Also CC(C)NCC1CCN(c2nc3c(cc2F)c(=O)c(C(=O)O)cn3C2CC2)C1 (centres undefined) , if possible.
Response: 35

Query: Lookup CCNCC1CCN(c2c(F)cc3c(=O)c(C(=O)O)cn(C4CC4)c3c2F)C1 (centres undefined)
Response: 59

* * *

System: Staphylococcus aureus
Experiment: Minimum inhibitory concentration against Staphylococcus aureus UC-76 in vitro.
Assay type: functional
Recorded MIC for the following compounds
Provide the reading as a plain figure in µg/mL.

> print(dat)
                                   compound  recorded.number
1  CCNCC1CCN(c2c(F)cc3c(=O)c(C(=O)O)cn4c3c2OCC4C)C1 (stereo not given)            0.025
2  CC1COc2c(N3CCC(CN(C)C)C3)c(F)cc3c(=O)c(C(=O)O)cn1c23.Cl (stereo not given)             0.05
3  O=C(O)c1cn(C2CC2)c2c(F)c(N3CCNCC3)c(F)cc2c1=O              0.1
4  CC(C)NCC1CCN(c2c(F)cc3c(=O)c(C(=O)O)cn(C4CC4)c3c2F)C1 (stereo not given)            0.013

Query: Would you kindly share the measured MIC for CNCC1CCN(c2nc3c(cc2F)c(=O)c(C(=O)O)cn3C2CC2)C1 (stereo not given) ?
Response: 0.025

Query: What do you get for NC1CCN(c2nc3c(cc2F)c(=O)c(C(=O)O)cn3C2CC2)C1 (stereo not given) ?
Response: 0.013

Query: What about this compound? CC(C)NCC1CCN(c2nc3c(cc2F)c(=O)c(C(=O)O)cn3C2CC2)C1 (stereo not given)
Response: 0.1

Query: Same question, CNCC1CCN(c2c(F)cc3c(=O)c(C(=O)O)cn(C4CC4)c3c2F)C1 (stereo not given) this time
Response: 0.013

Query: Now the compound Cl.Cl.NC1CCN(c2cc3c(cc2F)c(=O)c(C(=O)O)cn3C2CC2)C1 (stereo not given)
Response: 0.025

Query: Also CN(C)CC1CCN(c2c(F)cc3c(=O)c(C(=O)O)cn(C4CC4)c3c2F)C1 (stereo not given) , if possible.
Response: 0.025

Query: Now try CNCC1CCN(c2c(F)cc3c(=O)c(C(=O)O)cn(C4CC4)c3c2N)C1.Cl (stereo not given) .
Response: 0.2

Query: Then Cl.NC1CCN(c2c(F)cc3c(=O)c(C(=O)O)cn(C4CC4)c3c2F)C1 (stereo not given) ?
Response: 0.025

Query: Same again, this time with Cl.Nc1c(N2CCC(N)C2)c(F)cc2c(=O)c(C(=O)O)cn(C3CC3)c12 (stereo not given)
Response: 0.4

Query: # iterate: Nc1c(N2CCNCC2)c(F)cc2c(=O)c(C(=O)O)cn(C3CC3)c12
Response: 0.8

Query: # repeat for O=C(O)c1cn(C2CC2)c2nc(N3CCNCC3)c(F)cc2c1=O
Response: 0.4

Query: What do you get for NCC1CCN(c2c(F)cc3c(=O)c(C(=O)O)cn(C4CC4)c3c2F)C1 (stereo not given) ?
Response: 0.003

Query: Also check CCNCC1CCN(c2c(F)cc3c(=O)c(C(=O)O)cn(C4CC4)c3c2[N+](=O)[O-])C1.Cl (stereo not given)
Response: 0.1

Query: Another compound to look at: CN(C)CC1CCN(c2cc3c(cc2F)c(=O)c(C(=O)O)cn3C2CC2)C1 (stereo not given)
Response: 0.1

Query: And for CC(C)NCC1CCN(c2c(F)cc3c(=O)c(C(=O)O)cn4c3c2OCC4C)C1 (stereo not given) ?
Response: 0.4

Query: Entry CC1COc2c(N3CCC(N)C3)c(F)cc3c(=O)c(C(=O)O)cn1c23.Cl (stereo not given) please
Response: 0.1

Data origin, for the record: ChEMBL document CHEMBL1124270
